assay: in vivo; conditions: Sprague-Dawley, rat, po, 10 mg/kg
metric_name: Cmax at 24 h (nM)

1) CC(=O)N[C@@H]1C[C@H](N(C)C(C)C)CC[C@@H]1N1CC[C@H](Nc2ncnc3ccc(C(F)(F)F)cc23)C1=O	500

---

target: C-C chemokine receptor type 2 (Homo sapiens, UniProt P41597); assay: Displacement of [125I]MCP1 from CCR2 in human PBMC measured after 30 mins by Microscintillation counting analysis
Sequence (P41597 whole entry): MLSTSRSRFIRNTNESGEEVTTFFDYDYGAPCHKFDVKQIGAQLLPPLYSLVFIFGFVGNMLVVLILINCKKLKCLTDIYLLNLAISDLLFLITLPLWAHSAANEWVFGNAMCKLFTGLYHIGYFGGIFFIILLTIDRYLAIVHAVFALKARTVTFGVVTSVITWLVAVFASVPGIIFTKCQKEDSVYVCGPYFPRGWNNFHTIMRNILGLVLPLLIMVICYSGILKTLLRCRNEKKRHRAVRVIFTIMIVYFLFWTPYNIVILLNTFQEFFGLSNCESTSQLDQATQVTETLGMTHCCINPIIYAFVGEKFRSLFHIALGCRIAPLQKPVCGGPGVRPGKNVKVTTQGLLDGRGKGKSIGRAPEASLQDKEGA
pIC50: −log10 of the molar value.
metric_name: pIC50

1. CC(=O)N[C@@H]1C[C@H](NC(C)(C)C)CC[C@@H]1N1CC[C@H](NC(=O)c2cccc(C(F)(F)F)c2)C1=O	7.82
2. CC(=O)N[C@@H]1C[C@H](N(C)C)CC[C@@H]1N1CC[C@H](Nc2ncnc3ccc(C(F)(F)F)cc23)C1=O	8.41
3. CC(=O)N[C@@H]1C[C@H](N)CC[C@@H]1N1CC[C@H](Nc2ncnc3ccc(C(F)(F)F)cc23)C1=O	8.54
4. CN[C@@H]1CC[C@H](N2CC[C@H](NC(=O)c3cccc(C(C)(C)C)n3)C2=O)[C@H](NC(C)=O)C1	8.52
5. CC(=O)N[C@@H]1C[C@H](NC(C)(C)C)CC[C@@H]1N1CC[C@H](Nc2ncnc3ccc(C(F)(F)F)cc23)C1=O	8.57
6. CC(=O)N[C@@H]1C[C@H](NC(C)(C)C)CC[C@@H]1N1CC[C@H](NC(=O)c2cccc(C(C)(C)C)n2)C1=O	8.89
7. CN[C@@H]1CC[C@H](N2CC[C@H](Nc3ncnc4ccc(C(F)(F)F)cc34)C2=O)[C@H](NC(C)=O)C1	8.34
8. CC(=O)N[C@@H]1C[C@H](NC(C)(C)C)CC[C@@H]1N1CC[C@H](Nc2ncnc3ccc(C(C)(C)C)nc23)C1=O	8.18
9. CC(=O)N[C@@H]1C[C@H](NC(C)(C)C)CC[C@@H]1N1CC[C@H](Nc2ncnc3ccc(OC(F)(F)F)cc23)C1=O	8.12

---

test: Clearance in Sprague-Dawley rat at 2 mg/kg, iv measured upto 24 hrs by LC-MS/MS analysis; conditions: in vivo
metric_name: clearance at 24 h (mL/min/kg)

1. CC(=O)N[C@@H]1C[C@H](N(C)C(C)C)CC[C@@H]1N1CC[C@H](Nc2ncnc3ccc(C(F)(F)F)cc23)C1=O	43

---

biological target: hERG (KCNH2) (Homo sapiens, UniProt Q12809); assay: Inhibition of human ERG expressed in human HEK293 cells at 30 uM whole-cell patch clamp assay relative to control; assay type: cell-based; conditions: HEK293 cells expressing human ERG
Sequence (Q12809 whole entry): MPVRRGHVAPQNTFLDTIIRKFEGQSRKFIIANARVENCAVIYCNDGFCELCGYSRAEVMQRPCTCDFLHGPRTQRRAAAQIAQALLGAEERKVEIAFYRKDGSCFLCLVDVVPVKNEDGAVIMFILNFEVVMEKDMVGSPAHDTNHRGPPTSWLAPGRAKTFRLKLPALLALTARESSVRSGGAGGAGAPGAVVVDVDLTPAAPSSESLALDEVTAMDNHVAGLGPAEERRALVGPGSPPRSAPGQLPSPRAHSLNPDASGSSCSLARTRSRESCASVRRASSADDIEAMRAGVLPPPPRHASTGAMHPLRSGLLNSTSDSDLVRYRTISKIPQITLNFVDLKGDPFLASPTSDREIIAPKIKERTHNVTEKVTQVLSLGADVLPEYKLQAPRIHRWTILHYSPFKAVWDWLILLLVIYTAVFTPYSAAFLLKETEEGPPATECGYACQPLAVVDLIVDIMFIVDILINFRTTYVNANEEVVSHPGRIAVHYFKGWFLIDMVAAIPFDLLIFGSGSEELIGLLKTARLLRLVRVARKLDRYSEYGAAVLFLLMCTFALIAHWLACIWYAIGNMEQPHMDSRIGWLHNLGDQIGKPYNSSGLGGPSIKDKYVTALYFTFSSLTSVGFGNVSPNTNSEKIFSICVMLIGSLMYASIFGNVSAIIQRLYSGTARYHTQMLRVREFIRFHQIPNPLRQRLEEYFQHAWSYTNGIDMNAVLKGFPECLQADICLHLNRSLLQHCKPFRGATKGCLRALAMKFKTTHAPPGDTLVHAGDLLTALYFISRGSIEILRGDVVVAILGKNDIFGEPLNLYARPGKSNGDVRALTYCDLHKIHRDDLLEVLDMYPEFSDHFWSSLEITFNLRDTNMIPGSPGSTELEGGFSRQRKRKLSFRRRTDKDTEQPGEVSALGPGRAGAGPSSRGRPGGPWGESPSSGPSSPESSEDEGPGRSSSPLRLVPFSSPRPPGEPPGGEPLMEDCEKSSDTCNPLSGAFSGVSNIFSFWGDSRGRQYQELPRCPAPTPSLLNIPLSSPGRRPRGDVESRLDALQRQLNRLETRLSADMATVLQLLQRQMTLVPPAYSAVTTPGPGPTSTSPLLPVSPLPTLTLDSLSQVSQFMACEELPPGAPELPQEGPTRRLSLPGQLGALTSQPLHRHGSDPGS
// reported inhibition at 30 µM for each item listed
metric_name: inhibition at 30 µM

1. CC(=O)N[C@@H]1C[C@H](NC(C)(C)C)CC[C@@H]1N1CC[C@H](Nc2ncnc3ccc(C(F)(F)F)cc23)C1=O	19%
2. CN[C@@H]1CC[C@H](N2CC[C@H](Nc3ncnc4ccc(C(F)(F)F)cc34)C2=O)[C@H](NC(C)=O)C1	24%
3. CC(=O)N[C@@H]1C[C@H](NC(C)(C)C)CC[C@@H]1N1CC[C@H](Nc2ncnc3ccc(OC(F)(F)F)cc23)C1=O	36%

---

target: UniProtKB P10635
Sequence (P10635 whole entry): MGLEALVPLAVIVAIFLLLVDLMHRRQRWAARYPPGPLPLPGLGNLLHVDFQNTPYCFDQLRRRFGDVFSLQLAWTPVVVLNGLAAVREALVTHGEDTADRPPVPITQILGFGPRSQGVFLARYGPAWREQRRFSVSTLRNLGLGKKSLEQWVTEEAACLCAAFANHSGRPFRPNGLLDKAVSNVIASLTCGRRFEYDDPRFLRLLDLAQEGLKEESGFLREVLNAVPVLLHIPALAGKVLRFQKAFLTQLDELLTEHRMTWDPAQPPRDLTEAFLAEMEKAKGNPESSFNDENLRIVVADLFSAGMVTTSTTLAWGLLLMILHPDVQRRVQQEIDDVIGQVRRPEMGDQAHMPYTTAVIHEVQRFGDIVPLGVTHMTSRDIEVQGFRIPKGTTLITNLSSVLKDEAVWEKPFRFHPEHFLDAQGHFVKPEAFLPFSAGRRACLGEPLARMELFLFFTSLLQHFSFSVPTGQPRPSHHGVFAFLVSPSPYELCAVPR
pIC50: −log10 of the molar value.
metric_name: pIC50

1. CC(=O)N[C@@H]1C[C@H](NC(C)(C)C)CC[C@@H]1N1CC[C@H](Nc2ncnc3ccc(OC(F)(F)F)cc23)C1=O	< 4.40
